Biological target: human ether-à-go-go-related gene (hERG) potassium channel (human, UniProt Q12809);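 further: peak tail current of the secondary pulse compared with the same well before compound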
Sequence (Q12809 whole entry, looked up): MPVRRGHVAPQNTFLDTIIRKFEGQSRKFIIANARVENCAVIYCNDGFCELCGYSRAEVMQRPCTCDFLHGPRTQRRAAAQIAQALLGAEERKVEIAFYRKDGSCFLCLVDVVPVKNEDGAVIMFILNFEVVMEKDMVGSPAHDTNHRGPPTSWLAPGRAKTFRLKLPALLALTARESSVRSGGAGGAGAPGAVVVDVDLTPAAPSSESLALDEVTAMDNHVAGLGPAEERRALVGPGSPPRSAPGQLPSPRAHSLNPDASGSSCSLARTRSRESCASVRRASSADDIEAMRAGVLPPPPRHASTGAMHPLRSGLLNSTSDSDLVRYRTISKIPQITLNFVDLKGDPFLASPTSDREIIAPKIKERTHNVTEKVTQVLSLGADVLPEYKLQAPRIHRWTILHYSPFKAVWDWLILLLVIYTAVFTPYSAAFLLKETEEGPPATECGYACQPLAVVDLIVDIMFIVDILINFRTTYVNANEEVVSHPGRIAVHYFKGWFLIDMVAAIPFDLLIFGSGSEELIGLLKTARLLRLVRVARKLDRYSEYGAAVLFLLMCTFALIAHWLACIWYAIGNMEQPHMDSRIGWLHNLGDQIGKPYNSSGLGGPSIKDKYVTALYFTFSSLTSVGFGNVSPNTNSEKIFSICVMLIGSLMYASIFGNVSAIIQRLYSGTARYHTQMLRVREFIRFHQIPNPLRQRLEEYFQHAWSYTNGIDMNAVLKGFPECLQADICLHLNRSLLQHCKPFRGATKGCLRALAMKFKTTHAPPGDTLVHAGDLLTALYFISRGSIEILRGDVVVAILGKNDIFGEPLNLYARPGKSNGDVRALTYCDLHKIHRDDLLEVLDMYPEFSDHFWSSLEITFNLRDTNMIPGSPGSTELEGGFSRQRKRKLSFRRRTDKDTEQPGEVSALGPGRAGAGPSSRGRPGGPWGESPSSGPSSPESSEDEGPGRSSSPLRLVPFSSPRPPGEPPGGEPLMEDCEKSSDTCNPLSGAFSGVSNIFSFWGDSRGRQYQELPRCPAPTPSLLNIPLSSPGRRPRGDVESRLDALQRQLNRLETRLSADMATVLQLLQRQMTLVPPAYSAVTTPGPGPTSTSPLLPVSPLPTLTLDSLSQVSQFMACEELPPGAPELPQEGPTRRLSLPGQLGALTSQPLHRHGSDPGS
Experiment: primary screen, population patch clamp on CHO cells stably expressing hERG; higher = less effect of the substance
Among all 310,000 compounds or so, about 14,000 (4.5%) showed an effect of 50% or more. Effects have a minus sign here. The entries come from a sample that favours strong results as a whole.
quantity_measured: hERG current change (%, negative = inhibition) at 10uM

{"columns": ["molecule", "tested_system", "result"],
 "data": [
  ["CC1CN(c2ccc([N+](=O)[O-])nc2)CC(C)O1 (stereo not shown)", "human ether-à-go-go-related gene (hERG) potassium channel (human, UniProt Q12809)", "-21.6%"],
  ["CCCCCCc1ccc(N2C[C@H](CCCCC)[C@@H](CC(=O)NCc3ccccc3)C2=O)cc1", "human ether-à-go-go-related gene (hERG) potassium channel (human, UniProt Q12809)", "-1.8%"],
  ["CC(C)CNC(=O)C(=O)NC1CCCC1", "human ether-à-go-go-related gene (hERG) potassium channel (human, UniProt Q12809)", "11.7%"],
  ["CCCCC[C@H]1CN(Cc2ccccc2)C(=O)[C@@H]1CC(=O)NCc1ccccc1", "human ether-à-go-go-related gene (hERG) potassium channel (human, UniProt Q12809)", "-65.8%"],
  ["Cc1nn(CC(=O)N2CCCCCC2)c(=O)c2cc3occc3n12", "human ether-à-go-go-related gene (hERG) potassium channel (human, UniProt Q12809)", "14.6%"],
  ["Cc1cc(F)ccc1NC(=O)c1ccc(NS(=O)(=O)c2cc(C(C)(C)C)ccc2C)cc1", "human ether-à-go-go-related gene (hERG) potassium channel (human, UniProt Q12809)", "0.887%"],
  ["COc1ccc(-c2cc(C)no2)cc1S(=O)(=O)N(C)c1ccc(C)cc1", "human ether-à-go-go-related gene (hERG) potassium channel (human, UniProt Q12809)", "-29.6%"],
  ["Cc1cccc(Nc2ncnc3ccccc23)c1.Cl", "human ether-à-go-go-related gene (hERG) potassium channel (human, UniProt Q12809)", "-5.93%"],
  ["Cl.Nc1nc(Nc2cccc(F)c2)nc2ccccc12", "human ether-à-go-go-related gene (hERG) potassium channel (human, UniProt Q12809)", "-19.3%"],
  ["CCCC[C@@H]1CNC(=S)N1CCC12CC3CC(CC(C3)C1)C2", "human ether-à-go-go-related gene (hERG) potassium channel (human, UniProt Q12809)", "18.9%"],
  ["CC(C)CN(CC(C)C)C(=O)CN1C(=O)NC2(CCc3ccccc3C2)C1=O (stereo not shown)", "human ether-à-go-go-related gene (hERG) potassium channel (human, UniProt Q12809)", "-8.61%"],
  ["CCCc1[nH]n(-c2ccc(F)cc2)c(=O)c1C=Nc1ccc(C)cc1", "human ether-à-go-go-related gene (hERG) potassium channel (human, UniProt Q12809)", "4.95%"],
  ["COc1ccc2c(c1)C(=O)N(c1ccc(C)cc1C)C(=O)C2", "human ether-à-go-go-related gene (hERG) potassium channel (human, UniProt Q12809)", "7.6%"],
  ["CC(CCc1ccccc1)NCC#N.Cl (stereo not shown)", "human ether-à-go-go-related gene (hERG) potassium channel (human, UniProt Q12809)", "18.9%"],
  ["O=C(Nc1nccs1)c1cccc(NC(=O)C(F)(F)F)c1", "human ether-à-go-go-related gene (hERG) potassium channel (human, UniProt Q12809)", "-5.07%"],
  ["Cc1ccc(OCC(=O)Nc2ccccc2F)cc1C", "human ether-à-go-go-related gene (hERG) potassium channel (human, UniProt Q12809)", "23.6%"],
  ["O=C(NC(=S)Nc1ccc2cn[nH]c2c1)c1ccccc1", "human ether-à-go-go-related gene (hERG) potassium channel (human, UniProt Q12809)", "-2.32%"],
  ["COc1ccc(-c2cc(C)no2)cc1S(=O)(=O)N(C)c1cccc(C)c1", "human ether-à-go-go-related gene (hERG) potassium channel (human, UniProt Q12809)", "-82.5%"],
  ["O=C(CN1CCC2(CC1)OCCO2)c1ccc2cc[nH]c2c1", "human ether-à-go-go-related gene (hERG) potassium channel (human, UniProt Q12809)", "-15.2%"],
  ["Cn1nc(-c2ccccc2)c2nc3ccccc3nc21", "human ether-à-go-go-related gene (hERG) potassium channel (human, UniProt Q12809)", "-5.31%"],
  ["Cl.c1ccc(Nc2c3c(nc4ccccc24)CCC3)cc1", "human ether-à-go-go-related gene (hERG) potassium channel (human, UniProt Q12809)", "-76.2%"],
  ["Cc1ccccc1C(=O)Nc1ccccc1NC(=O)c1ccccc1Br", "human ether-à-go-go-related gene (hERG) potassium channel (human, UniProt Q12809)", "25.4%"]
]}
